Endpoint: Kd (µM)
Number only, in µM; omit the unit.

Recorded Kd for c1ccc(Nc2cccc3ccccc23)cc1 [1-NPN] on AaenPBP1 (Agriphila aeneociliella) was 4.6

----------
Target: AaenPBP1 (Agriphila aeneociliella, UniProt Z9SOT8HEE8)
Sequence (Z9SOT8HEE8 24-166): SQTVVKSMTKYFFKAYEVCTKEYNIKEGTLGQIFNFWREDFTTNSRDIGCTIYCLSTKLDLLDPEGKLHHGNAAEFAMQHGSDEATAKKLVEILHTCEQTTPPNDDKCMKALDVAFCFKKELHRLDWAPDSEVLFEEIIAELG
Endpoint: pKi
pKi is defined as minus the log10 of a concentration measured in mol/L.

The molecule listed as CCCCCC/C=C\CCCCCCCCOC(C)=O [(Z)-9-Hexadecenyl acetate] shows pKi equal to 5.76
